Source: patent US20240262842A1

Tested on: MIA PaCa-2 cells
Assay: Growth inhibition activity on KRAS-G12C mutant cell line (CellTiter-Glo 3D)
Type: cell-based, human
Conditions: Homo sapiens, MIA PaCa-2, 72 h, MIA PaCa-2, 3-day culture with compound; Table 3-1
Quantity measured: IC50 (nM)

[
  {
    "Compound": "Cn1cnc2c3c(c(C(F)(F)F)cc21)-c1cccn2c(C(=O)c4cc(F)c(NC(=O)/C=C/CN5C6CCCC5CC6)c(F)c4)cc(c12)CCO3 [Example 235]",
    "Quantity measured": "IC50",
    "Measured result": 17
  },
  {
    "Compound": "Cc1cc2c(nc(C)n2C)c2c1-c1cccc3c(C(=O)c4cc(F)c(NC(=O)/C=C/CN5CC[C@H]5CO)c(F)c4)cn(c13)CCN2C [Example 132]",
    "Quantity measured": "IC50",
    "Measured result": 16.7
  },
  {
    "Compound": "Cn1cnc2c3c(c(C(F)(F)F)cc21)-c1cccn2c(C(=O)c4cc(F)c(NC(=O)/C=C/CN5CCC5)c(F)c4)cc(c12)CCO3 [Example 161]",
    "Quantity measured": "IC50",
    "Measured result": 21.6
  },
  {
    "Compound": "Cc1cc2c(nc(C)n2C)c2c1-c1cccn3c(C(=O)c4cc(F)c(NC(=O)/C=C/CN[C@H]5CCOC5)c(F)c4)cc(c13)CCN2C (single isomer, unassigned) [Example 107]",
    "Quantity measured": "IC50",
    "Measured result": 29.7
  },
  {
    "Compound": "COCc1nc2c3c(c(C(F)(F)F)cc2n1C)-c1cccn2c(C(=O)c4cc(F)c(NC(=O)/C=C/CNC5(C)COC5)c(F)c4)cc(c12)CCO3 (single isomer, unassigned) [Example 99]",
    "Quantity measured": "IC50",
    "Measured result": 9.79
  },
  {
    "Compound": "COCC1(NC/C=C/C(=O)Nc2c(F)cc(C(=O)c3cc4c5c(cccn35)-c3c(C(F)(F)F)cc5c(ncn5C)c3N(C)CC4)cc2F)CCCC1 [Example 127]",
    "Quantity measured": "IC50",
    "Measured result": 22.5
  }
]

###

System: MIA PaCa-2 cells
Assay: Growth inhibition activity on KRAS-G12C mutant cell line (CellTiter-Glo 3D)
Assay type: cell-based, human
Details: Homo sapiens, MIA PaCa-2, 72 h, MIA PaCa-2, 3-day culture with compound; Table 3
pIC50: −log10 of the molar value.
Listing: pIC50 of selected compounds

[
  {
    "Compound": "CO[C@H]1CC[C@H](NC/C=C/C(=O)Nc2c(F)cc(C(=O)c3cn4c5c(cccc35)-c3c(Cl)cccc3OCCCC4)cc2F)CC1 [Example 3]",
    "pIC50": 5.36
  },
  {
    "Compound": "CO[C@H]1CC[C@H](NC/C=C/C(=O)Nc2c(F)cc(C(=O)c3cn4c5c(cccc35)-c3c(C)cc5c(nc(C)n5C)c3OC[C@@H](C)C4)cc2F)CC1 [Example 22]",
    "pIC50": 7.00
  },
  {
    "Compound": "Cc1nc2c3c(c(C(F)(F)F)cc2n1C)-c1cccn2c(C(=O)c4cc(F)c(NC(=O)/C=C/CNC5(C(=O)O)CCCCC5)c(F)c4)cc(c12)CCO3 [Example 40]",
    "pIC50": 5.80
  },
  {
    "Compound": "Cc1nc2c3c(c(C(F)(F)F)cc2n1C)-c1cccn2c(C(=O)c4cc(F)c(NC(=O)/C=C/CNC(C)(C)C)c(F)c4)cc(c12)CCO3 [Example 33]",
    "pIC50": 8.30
  },
  {
    "Compound": "Cc1cc2c(nc(C)n2C)c2c1-c1cccc3c(C(=O)c4cc(F)c(NC(=O)/C=C/CNC(C)(C)C)c(F)c4)cn(c13)CCO2 [Example 13]",
    "pIC50": 7.23
  },
  {
    "Compound": "CO[C@H]1CC[C@H](NC/C=C/C(=O)Nc2c(F)cc(C(=O)c3cn4c5c(cccc35)-c3c(C)cc5c(nc(C)n5C)c3O[C@H](C)C4)cc2F)CC1 [Example 19]",
    "pIC50": 5.48
  }
]

###

Test system: MIA PaCa-2 cells
Assay: Growth inhibition activity on KRAS-G12C mutant cell line (CellTiter-Glo 3D)
Type: cell-based, human
Settings: Homo sapiens, MIA PaCa-2, 72 h, MIA PaCa-2, 3-day culture with compound; Table 3-1
pIC50: −log10 of the molar value.
Measured pIC50 of individual entries

[
  {
    "Compound": "Cc1nc2c3c(c(C(F)(F)F)cc2n1C)-c1cccn2c(C(=O)c4cc(F)c(NC(=O)/C=C/CNC5(C)COC5)c(F)c4)cc(c12)CCN3C (single isomer, unassigned) [Example 71]",
    "pIC50": 8.02
  },
  {
    "Compound": "COCCn1c(COC)[n+]([O-])c2c3c(c(OC)cc21)-c1cccn2c(C(=O)c4cc(F)c(NC(=O)/C=C/CNC5(C)CC5)c(F)c4)cc(c12)CCN3C [Example 243]",
    "pIC50": 7.04
  },
  {
    "Compound": "Cc1cc2c(nc(C)n2C)c2c1-c1cccc3c(C(=O)c4cc(F)c(NC(=O)/C=C/CN5[C@@H]6CC[C@H]5[C@H](O)C6)c(F)c4)cn(c13)CCN2C (racemic) [Example 144]",
    "pIC50": 7.52
  },
  {
    "Compound": "CN1CCn2cc(C(=O)c3cc(F)c(NC(=O)/C=C/CNC4(C)COC4)c(F)c3)c3cccc(c32)-c2c(C(F)(F)F)cc3c(ncn3C)c21 [Example 61]",
    "pIC50": 7.79
  },
  {
    "Compound": "COCc1nc2c3c(c(C)cc2n1C)-c1cccn2c(C(=O)c4cc(F)c(NC(=O)/C=C/CN[C@H]5CC[C@H](OC)CC5)c(F)c4)cc(c12)CCN3C (single isomer, unassigned) [Example 105]",
    "pIC50": 7.81
  },
  {
    "Compound": "COc1cc2c(ncn2C)c2c1-c1cccn3c(C(=O)c4cc(F)c(NC(=O)/C=C/CN[C@H]5CCOC5)c(F)c4)cc(c13)CCN2C (single isomer, unassigned) [Example 159]",
    "pIC50": 8.09
  },
  {
    "Compound": "C[C@@H](O)[C@@H]1CCCN1C/C=C/C(=O)Nc1c(F)cc(C(=O)c2cc3c4c(cccn24)-c2c(C(F)(F)F)cc4c(ncn4C)c2N(C)CC3)cc1F [Example 211]",
    "pIC50": 7.96
  },
  {
    "Compound": "Cc1cc2c(nc(C)n2C)c2c1-c1cccc3c(C(=O)c4cc(F)c(NC(=O)/C=C/CNCC(=O)N(C)C)c(F)c4)cn(c13)CCN2C [Example 94]",
    "pIC50": 7.14
  },
  {
    "Compound": "Cn1cnc2c3c(c(C(F)(F)F)cc21)-c1cccn2c(C(=O)c4cc(F)c(NC(=O)/C=C/CN5CC[C@H]5CF)c(F)c4)cc(c12)CCO3 [Example 175]",
    "pIC50": 7.63
  },
  {
    "Compound": "CN1CCc2cc(C(=O)c3cc(F)c(NC(=O)/C=C/CN[C@H]4CCCC[C@@H]4O)c(F)c3)n3cccc(c23)-c2c(C(F)(F)F)cc3c(ncn3C)c21 [Example 101]",
    "pIC50": 7.58
  },
  {
    "Compound": "Cc1cnc2c3c(c(C(F)(F)F)cn12)-c1cccn2c(C(=O)c4cc(F)c(NC(=O)/C=C/CNC5(C)COC5)c(F)c4)cc(c12)CCN3C [Example 187]",
    "pIC50": 7.41
  }
]

###

Biological target: interaction between GMPPNP-bound recombinant K-Ras4B G12C mutant protein and cRAF RAS-binding domain (cRAF-RBD) (Homo sapiens, UniProt P01116, G12C)
Construct: His-tag (N)
Sequence (P01116 with tags, fused parts or gaps isoform P01116-2 G12C): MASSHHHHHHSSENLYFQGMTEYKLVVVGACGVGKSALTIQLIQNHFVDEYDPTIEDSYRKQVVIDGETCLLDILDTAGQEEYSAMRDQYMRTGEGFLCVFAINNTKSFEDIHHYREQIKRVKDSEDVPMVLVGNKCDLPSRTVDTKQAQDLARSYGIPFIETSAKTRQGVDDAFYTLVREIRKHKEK
Experiment: Inhibitory activity on interaction between KRAS G12C and cRAF (Alpha technology)
Conditions: GMPPNP-bound KRAS G12C incubated with compound 25° C. 1 hour; Table 2; read-out: IC50
Quantity measured: IC50 (nM)

[
  {
    "Compound": "Cc1nc2c3c(c(C(F)(F)F)cc2n1C)-c1cccn2c(C(=O)c4cc(F)c(NC(=O)/C=C/CNC5(C)CC5)c(F)c4)cc(c12)CCO3",
    "Quantity measured": "IC50",
    "Comparator": "=",
    "Measured result": 13
  },
  {
    "Compound": "CO[C@H]1CC[C@H](NC/C=C/C(=O)Nc2c(F)cc(C(=O)c3cc4c5c(cccn35)-c3c(C(F)(F)F)cc5c(nc(C)n5C)c3OC(C)C4)cc2F)CC1 (stereo partly drawn) [Example 43]",
    "Quantity measured": "IC50",
    "Comparator": "=",
    "Measured result": 17
  },
  {
    "Compound": "Cc1nc2c3c(c(C(F)(F)F)cc2n1C)-c1cccn2c(C(=O)c4cc(F)c(NC(=O)/C=C/CN(C)C)c(F)c4)cc(c12)CCO3 (single isomer, unassigned) [Example 38-1]",
    "Quantity measured": "IC50",
    "Comparator": ">",
    "Measured result": 6700
  }
]
